Source: paper doi:10.1101/2021.12.21.473685

MEASURED TARGET: PARP1 full length (Homo sapiens, UniProt P09874 1-1014)
Sequence (P09874 whole entry): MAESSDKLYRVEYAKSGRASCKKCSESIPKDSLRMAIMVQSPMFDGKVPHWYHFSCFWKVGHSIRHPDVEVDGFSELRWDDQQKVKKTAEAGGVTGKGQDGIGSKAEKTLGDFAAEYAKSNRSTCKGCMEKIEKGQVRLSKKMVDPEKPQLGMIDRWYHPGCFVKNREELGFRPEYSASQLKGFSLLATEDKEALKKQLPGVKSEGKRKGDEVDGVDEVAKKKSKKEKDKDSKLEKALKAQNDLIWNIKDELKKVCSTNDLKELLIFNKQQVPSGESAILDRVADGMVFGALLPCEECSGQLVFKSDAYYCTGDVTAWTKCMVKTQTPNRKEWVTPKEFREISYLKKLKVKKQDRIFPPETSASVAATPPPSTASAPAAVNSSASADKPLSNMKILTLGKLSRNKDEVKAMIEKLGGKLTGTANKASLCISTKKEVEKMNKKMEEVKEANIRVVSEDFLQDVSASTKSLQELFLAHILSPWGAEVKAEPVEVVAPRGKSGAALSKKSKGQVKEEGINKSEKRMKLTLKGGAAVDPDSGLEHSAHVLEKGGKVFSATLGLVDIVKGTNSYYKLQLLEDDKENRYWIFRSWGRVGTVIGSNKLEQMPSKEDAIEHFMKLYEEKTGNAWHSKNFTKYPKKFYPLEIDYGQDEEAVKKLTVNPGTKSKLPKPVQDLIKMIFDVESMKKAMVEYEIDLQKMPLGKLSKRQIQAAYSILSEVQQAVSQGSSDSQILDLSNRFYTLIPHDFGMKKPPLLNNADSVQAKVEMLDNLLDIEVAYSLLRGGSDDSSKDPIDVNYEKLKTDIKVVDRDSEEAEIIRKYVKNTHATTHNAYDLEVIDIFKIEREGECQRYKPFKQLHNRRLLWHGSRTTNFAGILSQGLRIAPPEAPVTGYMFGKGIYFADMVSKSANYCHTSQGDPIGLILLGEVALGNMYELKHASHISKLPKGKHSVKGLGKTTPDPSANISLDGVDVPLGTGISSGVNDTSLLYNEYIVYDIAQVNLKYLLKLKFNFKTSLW
ASSAY SUMMARY: fluorescence polarization
pKd: −log10 of the molar value.
pKd values for the binders below.

BINDER: GCTGGCTTCGTAAGAAGCCAGCTCGCGGTCAGCTTGCTGACCGCG (structured_DNA, 5'-phosphate (printed for unlabelled oligo)) [SSB DNA dumbbell 45-mer (5-FAM labelled)]
pKd: ~7.19

What value of pKd has been reported for the following binder? DSB DNA (5-FAM labelled) (dsDNA) DNA 1: GCCTACCGGTTCGAATGGCAGC DNA 2: GCTGCCATTCGAACCGGTAGGC
~7.82
